Multi-source literature compilation: pIC50 on BTK (Homo sapiens).
Sequence (Q06187 whole entry): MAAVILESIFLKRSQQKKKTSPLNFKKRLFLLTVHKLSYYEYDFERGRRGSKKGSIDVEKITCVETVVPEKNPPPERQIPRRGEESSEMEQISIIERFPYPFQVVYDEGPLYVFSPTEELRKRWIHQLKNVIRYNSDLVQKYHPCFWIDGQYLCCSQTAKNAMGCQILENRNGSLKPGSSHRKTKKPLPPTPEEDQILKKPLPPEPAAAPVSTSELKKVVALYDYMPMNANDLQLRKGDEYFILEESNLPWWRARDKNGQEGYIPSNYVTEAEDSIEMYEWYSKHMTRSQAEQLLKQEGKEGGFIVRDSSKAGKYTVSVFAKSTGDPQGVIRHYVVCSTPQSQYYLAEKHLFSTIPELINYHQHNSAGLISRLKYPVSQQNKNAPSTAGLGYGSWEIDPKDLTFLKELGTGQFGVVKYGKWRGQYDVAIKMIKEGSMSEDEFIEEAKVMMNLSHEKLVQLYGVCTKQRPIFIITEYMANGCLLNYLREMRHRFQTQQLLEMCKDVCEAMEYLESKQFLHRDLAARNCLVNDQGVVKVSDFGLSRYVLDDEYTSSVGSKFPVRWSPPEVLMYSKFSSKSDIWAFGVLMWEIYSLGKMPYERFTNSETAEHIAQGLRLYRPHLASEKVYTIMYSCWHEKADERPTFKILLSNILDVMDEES
pIC50: −log10 of the molar value.

{"molecule": "C=CC(=O)Nc1cccc(-c2cc(-c3cncc(F)c3)cc3cnc(N)nc23)c1", "measurement_target": "BTK (Homo sapiens)", "pIC50": "> 7.00"}
{"molecule": "C=CC(=O)N1CCC(c2nc(-c3ccc(C(=O)Nc4cc(C5CC5)ccn4)cc3)n3c(N)nccc23)C1 (stereo not shown)", "measurement_target": "BTK (Homo sapiens)", "pIC50": "> 7.00"}
{"molecule": "CNC(=O)Nc1cc(-c2cccc(-n3cnc4cc(C(C)(C)C)ccc4c3=O)c2C)cn(C)c1=O", "measurement_target": "BTK (Homo sapiens)", "pIC50": 6.95}
{"molecule": "Cc1c(CNC(=O)c2noc(C(C)(C)C)n2)ccc(-c2nc(-c3cnn(C)c3)cn3nccc23)c1F", "measurement_target": "BTK (Homo sapiens)", "pIC50": "> 9.00"}

###

Collected from the literature: pIC50 of various compounds toward BTK (Homo sapiens).
pIC50: −log10 of the molar value.

{"compound": "NC(=O)c1cccc(-c2cnc3[nH]cc(C(=O)c4cccc(NS(=O)(=O)c5cccnc5)c4)c3c2)c1", "pIC50": "≥ 5.00"}
{"compound": "CC[C@@H](C)[C@@H](Nc1cc(F)cc(Cl)c1)C(=O)N[C@@H]1CCCN(c2ncnc3[nH]ncc23)C1", "pIC50": "> 7.00"}
{"compound": "O=C(CNc1cccc(-n2cccn2)c1)NC1CCCN(c2ncnc3[nH]ccc23)C1 (stereo not shown)", "pIC50": "6.00 to 7.00"}
{"compound": "C=CC(=O)Nc1cccc(-c2cc(-c3ccc(C(=O)Nc4ccccn4)c(Cl)c3)cc3cncnc23)c1", "pIC50": "> 7.00"}

###

pIC50: −log10 of the molar value.
Field pIC50: reported value for BTK (Homo sapiens, UniProt Q06187); entries drawn from several documents.

{"molecule": "O=C(c1cccc(O)c1)c1c[nH]c2ncc(-c3cccnc3)cc12", "measurement_target": "BTK (Homo sapiens, UniProt Q06187)", "pIC50": "≥ 5.00"}
{"molecule": "CC(C)(C)c1ccc(C(=O)NC2CCc3cc(-c4ncnc5[nH]ccc45)ccc32)cc1 (stereo not shown)", "measurement_target": "BTK (Homo sapiens, UniProt Q06187)", "pIC50": "< 5.00"}
{"molecule": "CC(C)OC1CN(C(=O)NC2CCCc3cc(-c4ncnc5[nH]c(-c6cnn(C)c6)cc45)ccc32)C1 (stereo not shown)", "measurement_target": "BTK (Homo sapiens, UniProt Q06187)", "pIC50": "> 8.00"}
{"molecule": "CS(=O)(=O)CCc1cn2cc(NC(=O)c3coc(-c4ccnc(N)c4)n3)c(-c3ccccc3)cc2n1", "measurement_target": "BTK (Homo sapiens, UniProt Q06187)", "pIC50": 8.54}

###

Below: molecules with IC50 recorded for BTK (Homo sapiens, UniProt Q06187) in separate published works.

{"given_smiles": "CC#CC(=O)N1C[C@H]2[C@@H]([C@H]1c1nc(-c3ccc(C(=O)Nc4ccccn4)cc3)c3c(N)nccn13)C2(C)C", "IC50": "9.1 nM"}
{"given_smiles": "CC#CC(=O)Nc1cccc(Oc2ncnc3[nH]c(-c4ccc(CN5CCCCC5)cc4)cc23)c1", "IC50": "< 100 nM"}
{"given_smiles": "C=CC(=O)N(C)Cc1cc(-c2ccnc(N)n2)ccc1CNC(=O)c1cc2c(s1)CCCC2", "IC50": "100 to 999 nM"}
{"given_smiles": "Cc1cc(-c2ccnc(Nc3cnn(C)c3)n2)ccc1CNC(=O)N1CC[C@@H](C(C)C)C1", "IC50": "< 10 nM"}
{"given_smiles": "Cn1cc(-c2cn3nccc3c(-c3cc(F)c(CNC(=O)c4cn(C(C)(C)C)nn4)cc3F)n2)cn1", "IC50": "1 to 10 nM"}
{"given_smiles": "CN(c1ncnc2[nH]ccc12)[C@@H]1CCN(C(=O)CNc2cc(Cl)cc(Cl)c2)C1", "IC50": "1000 to 10000 nM"}
{"given_smiles": "O=CNc1cnc(Br)cc1N(C=O)[C@H]1CCCN(C(=O)CNc2cc(Cl)cc(Cl)c2)C1", "IC50": "> 10000 nM"}

###

Record: compiled IC50 on BTK (Homo sapiens) from multiple reports.
quantity_name: IC50

{"molecule": "O=C(CNc1cccc(N2CCOCC2)c1)NC1CCCN(c2ncnc3[nH]ccc23)C1 (stereo not shown)", "result": "1000 to 10000 nM"}
{"molecule": "COc1cc(-c2nn(CC3CCN(C(=O)/C=C/CN(C)C)CC3)c3ncnc(N)c23)ccc1C", "result": "< 100 nM"}
{"molecule": "Cn1cc(-c2cc3c(-c4ccc5c(c4)CCCC5NC(=O)c4cc5c(s4)CCOC5)ncnc3[nH]2)cn1 (stereo not shown)", "result": "< 10 nM"}
{"molecule": "O=C(NCc1ccc(-c2ncnc3[nH]ccc23)cc1)c1ccc(C(F)(F)F)cn1", "result": "100 to 999 nM"}
{"molecule": "C=CC(=O)N1CC[C@@H](n2cc(-c3ccc(Oc4ccccc4F)cc3)c3c(N)n[nH]c(=O)c32)C1", "result": "10 to 1000 nM"}
{"molecule": "CN(C)C/C=C/C(=O)N(C)c1ccc(-n2c(=O)n(-c3ccc(Oc4ccccc4)cc3)c3c(N)ncnc32)cc1", "result": "< 100 nM"}
{"molecule": "CN(C)c1cn2nccc2c(-c2ccc(CNC(=O)c3noc(C(C)(C)C)n3)cc2)n1", "result": "10 to 1000 nM"}
{"molecule": "Cc1cc[nH]c(=O)c1-c1ccc2nc(Nc3cccc(NC(=O)[C@@H](N)C(C)C)c3)ncc2c1", "result": "< 100 nM"}
{"molecule": "CN(C/C=C/C(=O)Nc1cccc(-n2c(=O)n(-c3ccc(Oc4cccc(F)c4)cc3)c3c(N)ncnc32)c1)[C@H]1CCOC1", "result": "< 100 nM"}
{"molecule": "C=CC(=O)Nc1cccc(Oc2nc(Nc3ccc(N4CCC(CN5CCCCC5)CC4)cc3)nc3ccsc23)c1", "result": "≤ 50 nM"}
{"molecule": "NC(=O)c1nnc2c(-c3ccc4nc(-c5cncs5)[nH]c4c3)cccc2c1N", "result": "200 nM"}
{"molecule": "C#CC(=O)N1CC2CC1C(n1nc(-c3ccc(Nc4ccccc4)cc3)c3c(N)ncnc31)C2 (stereo not shown)", "result": "12.5 nM"}
{"molecule": "Cc1ccc2c(N)c(C(N)=O)nnc2c1-c1cc(F)c2cn[nH]c2c1", "result": "25.1 nM"}
{"molecule": "Cc1ccc2c(N)c(C(N)=O)nnc2c1-c1ccc2ccncc2c1", "result": "200 nM"}
{"molecule": "C=CC(=O)N1CC[C@]2(C1)C[C@H](n1c(NC(=O)c3ccc(-c4cnco4)s3)nc3cc(CN[C@@H](C)C(C)(C)C)ccc31)C2", "result": "0.64 nM"}
{"molecule": "Cc1cc(-c2ccnc(Nc3cn(C)nn3)n2)ccc1CNC(=O)c1cnc(C(C)(C)C)s1", "result": "10 to 99 nM"}
{"molecule": "Nc1ncnc2c1c(-c1ccccc1CO)nn2C1Cc2ccccc2C1", "result": "575 nM"}
{"molecule": "Cn1cc(-c2cc3nccn3c(-c3ccc(CNC(=O)c4ccn(C(C)(C)C)n4)cc3)n2)cn1", "result": "10 to 1000 nM"}
{"molecule": "Cn1cc(-c2cc3nccn3c(-c3ccc(CNC(=O)c4noc(C5(C)CC5)n4)cc3)n2)cn1", "result": "1 to 10 nM"}
{"molecule": "Cc1cc2[nH]ncc2cc1-c1cccc2c(N)c(C(N)=O)nnc12", "result": "10 nM"}
{"molecule": "O=C(CNc1cccc(N2CCCC2=O)c1)NC1CCCN(c2ncnc3[nH]ccc23)C1 (stereo not shown)", "result": "1000 to 10000 nM"}
{"molecule": "C=CC(=O)N1CCC[C@H](Nc2cc(CN3CCOCC3)cc(Nc3nccs3)n2)C1", "result": "~1000 nM"}
{"molecule": "C=CC(=O)N[C@H]1CC[C@@H](Nc2nc(Nc3cnn(CCO)c3)nc3ccsc23)CC1", "result": "≤ 50 nM"}
{"molecule": "C=CC(=O)Nc1cccc(Oc2nc(Nc3ccc(N4CCN(C)CC4)c(OC)c3)nc3[nH]ccc23)c1", "result": "31 nM"}
{"molecule": "O=C(CNc1ccc2c(c1)OCO2)NC1CCCN(c2nccc3[nH]ccc23)C1 (stereo not shown)", "result": "> 10000 nM"}
{"molecule": "COCCc1cc(-c2ccnc(Nc3cnn4c3CCC4)n2)ccc1CNC(=O)N1CC[C@@H](C(C)(C)C)C1", "result": "< 10 nM"}
{"molecule": "C=CC(=O)N[C@H]1C[C@H](F)CN(c2c(F)cc(C(N)=O)c3[nH]c(C)c(C)c23)C1", "result": "< 10 nM"}
{"molecule": "CC(C)(C)c1ccc(NCC(=O)NC2CCCN(c3ncnc4[nH]ccc34)C2)cc1 (stereo not shown)", "result": "> 10000 nM"}
{"molecule": "C=CC(=O)Nc1cccc(Oc2nc(Nc3ccc(N4CCC(CO)CC4)cc3)nc3ccsc23)c1", "result": "50 to 100 nM"}
{"molecule": "CC(C)/C=C(/C#N)C(=O)N1CC2CCCC2[C@H]1c1nc(-c2ccc(C(=O)Nc3ccccn3)cc2)c2c(N)nccn12 (stereo partly shown)", "result": "104 nM"}
{"molecule": "C=CC(=O)Nc1cccc(Oc2nc(Nc3ccc(N4CCN(C(C)C)CC4)cc3)nc3ccoc23)c1", "result": "≤ 50 nM"}
